Test system: Dopamine D1 receptor (Bos taurus)
Test: Compound was evaluated for its potency to Dopamine D1 stimulating effect in the adenylate cyclase assay.
Respond with Satisfied for pD2 values of 6 and above, Not satisfied for values below.

In [3]: df
Out[3]:
                                   compound  discrete_label
0  Oc1cc2c(cc1O)C(c1ccccc1)CNCC2 (stereo not drawn)       Satisfied
1  c1ccc2c(c1)CN[C@@H]1Cc3c[nH]c4cccc(c34)[C@H]21       Satisfied
2    CN1CCC[C@H]2c3cccc4[nH]cc(c34)C[C@H]21   Not satisfied
3  CCCN1Cc2ccccc2[C@H]2c3cccc4[nH]cc(c34)C[C@H]21   Not satisfied
4     CN1CCc2cccc3c2[C@H]1Cc1ccc(O)c(O)c1-3       Satisfied

* * *

Biological target: D(2) dopamine receptor (Rattus norvegicus) (UniProt P61169)
Sequence (P61169 whole entry): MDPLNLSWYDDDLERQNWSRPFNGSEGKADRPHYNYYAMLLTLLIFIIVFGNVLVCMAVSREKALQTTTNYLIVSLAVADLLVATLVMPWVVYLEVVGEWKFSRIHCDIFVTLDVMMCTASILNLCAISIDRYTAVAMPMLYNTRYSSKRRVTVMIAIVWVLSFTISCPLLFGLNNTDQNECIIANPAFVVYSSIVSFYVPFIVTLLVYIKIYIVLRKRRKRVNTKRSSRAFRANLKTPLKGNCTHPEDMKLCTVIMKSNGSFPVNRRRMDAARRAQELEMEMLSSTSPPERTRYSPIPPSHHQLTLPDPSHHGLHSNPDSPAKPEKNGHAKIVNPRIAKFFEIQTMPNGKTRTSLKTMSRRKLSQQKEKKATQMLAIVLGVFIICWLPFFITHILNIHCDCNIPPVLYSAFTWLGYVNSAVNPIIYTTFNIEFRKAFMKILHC
Assay: Percent of maximal inhibition by change of S2/S1 versus control at 1 uM for the cetylcholine (ACh) release as a model for Dopamine D2 receptor activation.
Type: functional
Parameters: scale not given: the % may be the effect or the level left
endpoint-name: Control (%)

                                   molecule  endpoint_name  reported_measurement
0  Oc1cc2c(cc1O)C(c1ccccc1)CNCC2 (stereo not given)        Control                     0
1    CN1CCC[C@H]2c3cccc4[nH]cc(c34)C[C@H]21        Control                    30
2  CN1Cc2ccccc2[C@H]2c3cccc4c3C(CN4)C[C@H]21 (stereo not given in full)        Control                     0
3           Oc1ccc([C@@H]2CNCc3ccccc32)cc1O        Control                     0
4  CCCCN1Cc2ccccc2[C@H]2c3cccc4[nH]cc(c34)C[C@H]21        Control                     0

* * *

Test system: Dopamine D1 receptor (Bos taurus)
Experiment: Compound was evaluated for its potency to Dopamine D1 stimulating effect in the adenylate cyclase assay.
endpoint-name: pD2

>>> print(df.to_string())
                           structure_string  endpoint_name  reported_measurement
0           Oc1ccc([C@@H]2CNCc3ccccc32)cc1O            pD2                     6
1  CCN1Cc2ccccc2[C@H]2c3cccc4[nH]cc(c34)C[C@H]21            pD2                     6
2  CN1Cc2ccccc2[C@H]2c3cccc4[nH]cc(c34)C[C@H]21            pD2                   6.1
